Listing of recorded kinase still bound, per cent of control by entry.
target: RIPK4 (human) (UniProt P57078); assay: KINOMEscan competition binding; settings: compound 10.0 µM
Sequence (P57078 whole entry, looked up): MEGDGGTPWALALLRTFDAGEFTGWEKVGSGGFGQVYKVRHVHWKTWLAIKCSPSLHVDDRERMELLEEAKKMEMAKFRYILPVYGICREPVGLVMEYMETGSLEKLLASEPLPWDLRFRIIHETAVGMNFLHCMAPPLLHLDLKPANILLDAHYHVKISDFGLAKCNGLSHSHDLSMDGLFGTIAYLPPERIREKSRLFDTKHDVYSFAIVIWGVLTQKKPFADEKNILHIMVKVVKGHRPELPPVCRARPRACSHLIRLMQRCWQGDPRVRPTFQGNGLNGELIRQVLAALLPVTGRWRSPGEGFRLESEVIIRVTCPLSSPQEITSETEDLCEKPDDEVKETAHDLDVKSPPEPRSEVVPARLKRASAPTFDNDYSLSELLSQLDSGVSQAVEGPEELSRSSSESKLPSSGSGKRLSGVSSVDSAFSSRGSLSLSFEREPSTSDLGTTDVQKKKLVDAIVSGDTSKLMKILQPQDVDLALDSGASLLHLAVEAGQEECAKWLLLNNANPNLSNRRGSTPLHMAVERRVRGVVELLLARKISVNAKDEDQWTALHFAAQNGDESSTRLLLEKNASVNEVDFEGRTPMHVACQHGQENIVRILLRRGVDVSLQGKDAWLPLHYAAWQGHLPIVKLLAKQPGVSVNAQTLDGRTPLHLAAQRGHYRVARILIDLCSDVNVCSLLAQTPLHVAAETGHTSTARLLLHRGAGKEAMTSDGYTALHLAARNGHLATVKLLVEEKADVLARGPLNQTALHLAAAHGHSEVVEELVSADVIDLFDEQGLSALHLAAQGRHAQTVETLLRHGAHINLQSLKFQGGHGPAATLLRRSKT
Numbers only; they are read as %.

Below are worked cases with known answers.
> print(dat)
                         compound.structure                     measured.on  recorded.result
1  COc1ccc(N(C(=O)Oc2c(C)cccc2C)c2ccnc(Nc3ccc(N4CCN(C)CC4)cc3)n2)c(OC)c1  RIPK4 (human) (UniProt P57078)               92
2  CNC(=O)c1cc(Oc2ccc(NC(=O)Nc3ccc(Cl)c(C(F)(F)F)c3)cc2)ccn1  RIPK4 (human) (UniProt P57078)               92
3  O=C1NC(=O)/C(=C/c2ccc3nccc(-c4ccncc4)c3c2)S1  RIPK4 (human) (UniProt P57078)               56
4  CS(=O)(=O)N1CCN(Cc2cc3nc(-c4cccc5[nH]ncc45)nc(N4CCOCC4)c3s2)CC1  RIPK4 (human) (UniProt P57078)              100

Turning to the following compound.
[Q] Query kinase still bound, per cent of control for CN(C)C/C=C/C(=O)Nc1ccc(C(=O)Nc2cccc(Nc3nccc(-c4cccnc4)n3)c2)cc1
[A] 33

---

target: UniProt P42681; experiment: KINOMEscan competition binding; details: compound 10.0 µM
Sequence (P42681 whole entry, looked up): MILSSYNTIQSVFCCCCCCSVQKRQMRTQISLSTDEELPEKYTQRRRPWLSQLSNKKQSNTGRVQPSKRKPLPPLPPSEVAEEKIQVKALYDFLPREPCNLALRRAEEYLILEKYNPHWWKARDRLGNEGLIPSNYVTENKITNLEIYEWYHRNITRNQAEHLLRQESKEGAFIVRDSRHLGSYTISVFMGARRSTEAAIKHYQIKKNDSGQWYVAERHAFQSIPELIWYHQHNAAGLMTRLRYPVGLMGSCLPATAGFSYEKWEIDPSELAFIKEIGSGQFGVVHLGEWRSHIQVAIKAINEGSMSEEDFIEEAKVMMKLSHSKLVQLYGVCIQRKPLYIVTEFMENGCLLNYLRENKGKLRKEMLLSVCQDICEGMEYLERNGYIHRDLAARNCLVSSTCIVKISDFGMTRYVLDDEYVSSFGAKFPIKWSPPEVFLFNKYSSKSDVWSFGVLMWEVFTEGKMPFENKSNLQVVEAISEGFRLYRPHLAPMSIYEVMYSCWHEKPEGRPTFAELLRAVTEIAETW
Measured quantity: kinase still bound, per cent of control

Below, each entry is followed by its recorded kinase still bound, per cent of control result.
> print(dat)
                         compound.structure     measured.on                        measured.quantity  recorded.result
1  C[C@@H](Oc1cc(-c2cnn(C3CCNCC3)c2)cnc1N)c1c(Cl)ccc(F)c1Cl  UniProt P42681  kinase still bound, per cent of control             5.9%
2  CS(=O)(=O)N1CCN(Cc2cc3nc(-c4cccc5[nH]ncc45)nc(N4CCOCC4)c3s2)CC1  UniProt P42681  kinase still bound, per cent of control             100%
3  N#CCNC(=O)c1ccc(-c2ccnc(Nc3ccc(N4CCOCC4)cc3)n2)cc1  UniProt P42681  kinase still bound, per cent of control             100%
4  NC(=O)Nc1cc(-c2cccc(F)c2)sc1C(=O)N[C@@H]1CCCNC1  UniProt P42681  kinase still bound, per cent of control             0.1%
5  Cc1n[nH]c2ccc(-c3cncc(OC[C@@H](N)Cc4c[nH]c5ccccc45)c3)cc12  UniProt P42681  kinase still bound, per cent of control             100%
6  COCC(=O)NC/C=C/c1ccc2ncnc(Nc3ccc(Oc4ccc(C)nc4)c(C)c3)c2c1  UniProt P42681  kinase still bound, per cent of control              84%
7  CN(C)C/C=C/C(=O)Nc1ccc(C(=O)Nc2cccc(Nc3nccc(-c4cccnc4)n3)c2)cc1  UniProt P42681  kinase still bound, per cent of control              67%
8  CNC(=O)c1ccc(Nc2cc(Nc3ccccc3S(=O)(=O)C(C)C)c3cc[nH]c3n2)nc1  UniProt P42681  kinase still bound, per cent of control              33%

Now turn to the next molecule.
[Q] Query kinase still bound, per cent of control for O=C(Nc1cccc(Nc2ncc(Br)c(NCCc3cnc[nH]3)n2)c1)N1CCCC1
[A] 17%
